# experimental protocol: In vivo biodistribution of radiolabeled complexes in normal athymic mice
# particulars: non-tumor bearing mice, 8.00 hr; ± SD
measured property: percent injected dose per gram, Liver (% ID/g)

[[record]]
compound = "O=C(O)CNC(Cc1ccc([N+](=O)[O-])cc1)CN1CCN(CC(=O)O)CCN(CC(=O)O)CC1.[153Gd] (stereo not shown) [^153Gd-C-NE3TA]"
measured_property = "percent injected dose per gram, Liver"
unit_string = "% ID/g"
numeric_value = 0.02

[[record]]
compound = "O=C(O)CNC(Cc1ccc([N+](=O)[O-])cc1)CN1CCN(CC(=O)O)CCN(CC(=O)O)CC1.[177Lu] (stereo not shown) [^177Lu-C-NE3TA]"
measured_property = "percent injected dose per gram, Liver"
unit_string = "% ID/g"
numeric_value = 0.36

[[record]]
compound = "O=C([O-])CNC(Cc1ccc([N+](=O)[O-])cc1)CN1CCN(CC(=O)[O-])CCN(CC(=O)[O-])CC1.[Bi+3] (stereo not shown)"
measured_property = "percent injected dose per gram, Liver"
unit_string = "% ID/g"
numeric_value = 0.37

[[record]]
compound = "O=C(O)CNC(Cc1ccc([N+](=O)[O-])cc1)CN1CCN(CC(=O)O)CCN(CC(=O)O)CC1.[90Y] (stereo not shown) [^90Y-C-NE3TA]"
measured_property = "percent injected dose per gram, Liver"
unit_string = "% ID/g"
numeric_value = 0.20

